Biological target: full length human TREX1 (Homo sapiens, UniProt Q9NSU2)
Construct: N-terminally His-Tev tagged full length human TREX1; made in house; host or cells: E. coli
Sequence (Q9NSU2 whole entry): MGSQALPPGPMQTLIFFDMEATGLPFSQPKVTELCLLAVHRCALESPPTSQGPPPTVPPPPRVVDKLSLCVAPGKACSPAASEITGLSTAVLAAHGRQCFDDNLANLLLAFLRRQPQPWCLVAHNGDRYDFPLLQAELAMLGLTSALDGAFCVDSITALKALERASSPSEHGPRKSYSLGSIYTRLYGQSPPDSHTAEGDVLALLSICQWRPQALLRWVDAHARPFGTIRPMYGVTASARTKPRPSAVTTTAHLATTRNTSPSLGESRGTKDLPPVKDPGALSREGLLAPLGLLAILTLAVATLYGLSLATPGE
Test: hTREX1 Biochemical Assay (fluorescence, dsDNA substrate degradation)
Settings: biochemical, read-out: hTREX1 IC50
measurement_type: IC50

[[record]]
compound = "Cc1cnc(C(c2ccccc2Cl)C(C)c2nc(C(=O)Nc3cnoc3)c(O)c(=O)n2C)cn1 (single isomer, unassigned) [Example 116 D2E2]"
measurement_type = "IC50"
observed_result = "> 10 nM"

[[record]]
compound = "CC(c1nc(C(=O)Nc2cnoc2)c(O)c(=O)n1C)C(c1cnn(C)c1)c1cc(F)c(F)cc1Cl (single isomer, unassigned) [Example 28 D2E1]"
measurement_type = "IC50"
observed_result = "> 10 nM"

[[record]]
compound = "CCn1ncc(C(c2ccc(F)cc2C#N)C(C)c2nc(C(=O)Nc3cnoc3)c(O)c(=O)n2C)c1C (single isomer, unassigned) [Example 65 D1E1]"
measurement_type = "IC50"
observed_result = "< 1 nM"

[[record]]
compound = "CC(c1nc(C(=O)Nc2cnoc2)c(O)c(=O)n1C)C(c1cnn(CCOC(F)(F)F)c1)c1cc(F)ccc1Cl (single isomer, unassigned) [Example 98 D1E1]"
measurement_type = "IC50"
observed_result = "1 to 10 nM"

[[record]]
compound = "Cc1ncc(C(c2ccccc2C#N)C(C)c2nc(C(=O)Nc3cnoc3)c(O)c(=O)n2C)nc1C (single isomer, unassigned) [Example 81 D2E1]"
measurement_type = "IC50"
observed_result = "1 to 10 nM"

[[record]]
compound = "CCc1cnn(C(c2ccccc2Cl)C(C)c2nc(C(=O)Nc3cnoc3)c(O)c(=O)n2C)c1 (single isomer, unassigned) [Example 134 D1E1]"
measurement_type = "IC50"
observed_result = "1 to 10 nM"

[[record]]
compound = "C[C@H](c1nc(C(=O)Nc2cnoc2)c(O)c(=O)n1C)[C@@H](c1cc(F)ccc1C#N)c1cn(C)nc1C#N [Example 59 D1E2]"
measurement_type = "IC50"
observed_result = "< 1 nM"

[[record]]
compound = "Cc1cnc(C)c(C(c2ccccc2Cl)C(C)c2nc(C(=O)Nc3cnoc3)c(O)c(=O)n2C)n1 (single isomer, unassigned) [Example 120 D1E2]"
measurement_type = "IC50"
observed_result = "> 10 nM"

[[record]]
compound = "CC(c1nc(C(=O)Nc2cnoc2)c(O)c(=O)n1C)C(c1cnn(CCN2CCN(C(=O)OC(C)(C)C)CC2)c1)c1ccccc1C#N (single isomer, unassigned) [Example 21 D1E2]"
measurement_type = "IC50"
observed_result = "> 10 nM"

[[record]]
compound = "Cc1ccc(C(c2ccccc2C#N)C(C)c2nc(C(=O)Nc3cnoc3)c(O)c(=O)n2C)cn1 (single isomer, unassigned) [Example 5 D1E2]"
measurement_type = "IC50"
observed_result = "< 1 nM"

[[record]]
compound = "CC(c1nc(C(=O)Nc2cnoc2)c(O)c(=O)n1C)C(c1cnn(C)c1)c1ccccc1C#N (single isomer, unassigned) [Example 2 D2E2]"
measurement_type = "IC50"
observed_result = "> 10 nM"

[[record]]
compound = "CC(c1nc(C(=O)Nc2cnoc2)c(O)c(=O)n1C)C(c1cnn(C2COC2)c1)c1ccccc1C#N (single isomer, unassigned) [Example 106 D1E1]"
measurement_type = "IC50"
observed_result = "< 1 nM"

[[record]]
compound = "CC(c1nc(C(=O)Nc2cnoc2)c(O)c(=O)n1C)C(c1cnn(C)c1)c1cc(C(F)(F)F)ccc1C#N (single isomer, unassigned) [Example 29 D1E2]"
measurement_type = "IC50"
observed_result = "> 10 nM"

[[record]]
compound = "Cc1ncc(C(c2cc(F)ccc2C#N)C(C)c2nc(C(=O)Nc3cnoc3)c(O)c(=O)n2C)nc1C (single isomer, unassigned) [Example 124 D1E2]"
measurement_type = "IC50"
observed_result = "< 1 nM"

[[record]]
compound = "Cc1cnc(C(c2ccccc2C#N)C(C)c2nc(C(=O)Nc3cnoc3)c(O)c(=O)n2C)c(C)n1 (single isomer, unassigned) [Example 123 D1E1]"
measurement_type = "IC50"
observed_result = "1 to 10 nM"

[[record]]
compound = "Cc1cnc(C(c2ccccc2Cl)C(C)c2nc(C(=O)Nc3cnoc3)c(O)c(=O)n2C)cn1 (single isomer, unassigned) [Example 116 D2E1]"
measurement_type = "IC50"
observed_result = "1 to 10 nM"

[[record]]
compound = "Cc1nnc(C(c2ccccc2Cl)C(C)c2nc(C(=O)Nc3cnoc3)c(O)c(=O)n2C)o1 (single isomer, unassigned) [Example 156 D1E1]"
measurement_type = "IC50"
observed_result = "> 10 nM"

[[record]]
compound = "CC(c1nc(C(=O)Nc2cnoc2)c(O)c(=O)n1C)C(c1ccccc1C#N)c1ccnn1C (single isomer, unassigned) [Example 1 D1E2]"
measurement_type = "IC50"
observed_result = "> 10 nM"

[[record]]
compound = "Cc1cc(C(c2cc(F)ccc2C#N)C(C)c2nc(C(=O)Nc3cnoc3)c(O)c(=O)n2C)nn1C (single isomer, unassigned) [Example 112 D1E1]"
measurement_type = "IC50"
observed_result = "< 1 nM"

[[record]]
compound = "CCn1cc(C(c2cc(F)ccc2Cl)C(C)c2nc(C(=O)Nc3cnoc3)c(O)c(=O)n2C)cn1 (single isomer, unassigned) [Example 60 D2E1]"
measurement_type = "IC50"
observed_result = "> 10 nM"

[[record]]
compound = "Cc1cc(C)n(C(c2ccccc2Cl)C(C)c2nc(C(=O)Nc3cnoc3)c(O)c(=O)n2C)n1 (single isomer, unassigned) [Example 136 D1E1]"
measurement_type = "IC50"
observed_result = "> 10 nM"

[[record]]
compound = "Cc1ncc(C(c2ccccc2Cl)C(C)c2nc(C(=O)Nc3cnoc3)c(O)c(=O)n2C)nc1C (single isomer, unassigned) [Example 125 D2E1]"
measurement_type = "IC50"
observed_result = "1 to 10 nM"

[[record]]
compound = "Cc1ncc(C(c2ccccc2Cl)C(C)c2nc(C(=O)Nc3cnoc3)c(O)c(=O)n2C)cn1 (single isomer, unassigned) [Example 44 D1E1]"
measurement_type = "IC50"
observed_result = "> 10 nM"


---

Target: full length mouse TREX1 (Mus musculus, UniProt Q91XB0)
Construct: N-terminally His-Tev tagged full length mouse TREX1; made in house; host or cells: E. coli
Sequence (Q91XB0 whole entry): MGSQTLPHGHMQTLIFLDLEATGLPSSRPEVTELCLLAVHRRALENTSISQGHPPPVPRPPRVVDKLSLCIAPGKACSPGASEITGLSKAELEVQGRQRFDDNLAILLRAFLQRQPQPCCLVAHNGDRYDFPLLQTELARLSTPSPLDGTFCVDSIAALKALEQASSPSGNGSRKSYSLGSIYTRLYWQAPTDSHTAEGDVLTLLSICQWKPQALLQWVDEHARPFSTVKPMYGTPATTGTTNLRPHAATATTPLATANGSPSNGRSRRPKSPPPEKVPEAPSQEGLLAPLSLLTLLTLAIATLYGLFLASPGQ
Assay: mTREX1 Biochemical Assay (fluorescence, dsDNA substrate degradation)
Conditions: biochemical, read-out: mTREX1 IC50
molecules and their reported IC50
measurement_type: IC50

[[record]]
molecule = "Cc1cc(C(c2cc(F)ccc2C#N)C(C)c2nc(C(=O)Nc3cnoc3)c(O)c(=O)n2C)n(C)n1 (single isomer, unassigned) [Example 111 D1E2]"
observed_result = "1 to 10 nM"

[[record]]
molecule = "Cc1nn(C)cc1C(c1ccccc1C#N)C(C)c1nc(C(=O)Nc2cnoc2)c(O)c(=O)n1C (single isomer, unassigned) [Example 3 D1E1]"
observed_result = "< 1 nM"

[[record]]
molecule = "CC(c1nc(C(=O)Nc2cnoc2)c(O)c(=O)n1C)C(c1cnn(C)c1)c1c(C#N)cccc1C#N (single isomer, unassigned) [Example 19 D2E1]"
observed_result = "> 10 nM"

[[record]]
molecule = "CCn1c(C(C)C(c2cnn(C)c2)c2ccccc2C#N)nc(C(=O)Nc2cnoc2)c(O)c1=O (single isomer, unassigned) [Example 149 D1E1]"
observed_result = "> 10 nM"

[[record]]
molecule = "CC(c1nc(C(=O)Nc2cnoc2)c(O)c(=O)n1C)C(c1cnn(C)c1)c1cc(F)ccc1C#N (single isomer, unassigned) [Example 14 D2E2]"
observed_result = "> 10 nM"

[[record]]
molecule = "CC(c1nc(C(=O)Nc2cnoc2)c(O)c(=O)n1C)C(c1cnn(CC(C)(C)C#N)c1)c1cc(F)ccc1Cl (single isomer, unassigned) [Example 99 D1E1]"
observed_result = "> 10 nM"


---

molecules and their reported pIC50
Target: full length human TREX1 (Homo sapiens, UniProt Q9NSU2)
Construct: N-terminally His-Tev tagged full length human TREX1; made in house; host or cells: E. coli
Assay: hTREX1 Biochemical Assay (fluorescence, dsDNA substrate degradation)
Conditions: biochemical, read-out: hTREX1 IC50
pIC50: −log10 of the molar value.
measurement_type: pIC50

[[record]]
molecule = "Cc1ccn(C(c2ccccc2Cl)C(C)c2nc(C(=O)Nc3cnoc3)c(O)c(=O)n2C)n1 (single isomer, unassigned) [Example 49 D1E1]"
observed_result = "8.00 to 9.00"

[[record]]
molecule = "CC(c1nc(C(=O)Nc2cnoc2)c(O)c(=O)n1C)C(c1ccccc1Cl)n1cccn1 (single isomer, unassigned) [Example 45 D1E1]"
observed_result = "8.00 to 9.00"

[[record]]
molecule = "CC(c1nc(C(=O)Nc2cnoc2)c(O)c(=O)n1C)C(c1cnn(C)c1)c1ccc(F)cc1Cl (single isomer, unassigned) [Example 74 D2E2]"
observed_result = "< 8.00"

[[record]]
molecule = "Cc1nn(C)cc1C(c1cc(F)ccc1Cl)C(C)c1nc(C(=O)Nc2cnoc2)c(O)c(=O)n1C (single isomer, unassigned) [Example 62 D2E2]"
observed_result = "> 9.00"

[[record]]
molecule = "CC(c1nc(C(=O)Nc2cnoc2)c(O)c(=O)n1C)C(c1cnn(C)c1)c1ccc(C(=O)N(C)C)cc1C#N (single isomer, unassigned) [Example 11 D2E1]"
observed_result = "< 8.00"

[[record]]
molecule = "Cc1nnc(C(c2ccccc2Cl)C(C)c2nc(C(=O)Nc3cnoc3)c(O)c(=O)n2C)o1 (single isomer, unassigned) [Example 156 D2E1]"
observed_result = "< 8.00"

[[record]]
molecule = "COCCn1ncc(C(c2ccccc2C#N)C(C)c2nc(C(=O)Nc3cnoc3)c(O)c(=O)n2C)c1C (single isomer, unassigned) [Example 69 D2E1]"
observed_result = "< 8.00"

[[record]]
molecule = "CC(c1nc(C(=O)Nc2cnoc2)c(O)c(=O)n1C)C(c1cnn(C(F)F)c1)c1ccccc1C#N (single isomer, unassigned) [Example 38 D2E2]"
observed_result = "8.00 to 9.00"

[[record]]
molecule = "CC(c1nc(C(=O)Nc2cnoc2)c(O)c(=O)n1C)C(c1ccccc1C#N)c1cn(C)nc1C#N (single isomer, unassigned) [Example 10 D1E2]"
observed_result = "8.00 to 9.00"

[[record]]
molecule = "CC(c1nc(C(=O)Nc2cnoc2)c(O)c(=O)n1C)C(c1cnn(CC2COC2)c1)c1ccccc1Cl (single isomer, unassigned) [Example 88 D2E1]"
observed_result = "< 8.00"

[[record]]
molecule = "CC(c1nc(C(=O)Nc2cnoc2)c(O)c(=O)n1C)C(c1cn[nH]c1)c1ccccc1C#N (single isomer, unassigned) [Example 12 D2E2]"
observed_result = "< 8.00"

[[record]]
molecule = "CCn1cc(C(c2ccc(F)cc2C#N)C(C)c2nc(C(=O)Nc3cnoc3)c(O)c(=O)n2C)cn1 (single isomer, unassigned) [Example 16 D1E2]"
observed_result = "< 8.00"

[[record]]
molecule = "COCCn1cc(C(c2cc(F)ccc2Cl)C(C)c2nc(C(=O)Nc3cnoc3)c(O)c(=O)n2C)cn1 (single isomer, unassigned) [Example 97 D1E1]"
observed_result = "8.00 to 9.00"

[[record]]
molecule = "CCn1cc(C(c2cc(F)ccc2C#N)C(C)c2nc(C(=O)Nc3cnoc3)c(O)c(=O)n2C)cn1 (single isomer, unassigned) [Example 17 D1E1]"
observed_result = "< 8.00"

[[record]]
molecule = "CC(c1nc(C(=O)Nc2cnoc2)c(O)c(=O)n1C)C(c1cnn(C)c1)c1ccc(O)cc1C#N (single isomer, unassigned) [Example 80 D1E1]"
observed_result = "> 9.00"

[[record]]
molecule = "CC(c1nc(C(=O)Nc2cnoc2)c(O)c(=O)n1C)C(c1cnn(CCN2CCN(C)CC2)c1)c1ccccc1C#N (single isomer, unassigned) [Example 32 D1E2]"
observed_result = "8.00 to 9.00"

[[record]]
molecule = "Cc1nn(C)cc1C(c1cc(F)ccc1Cl)C(C)c1nc(C(=O)Nc2cnoc2)c(O)c(=O)n1C (single isomer, unassigned) [Example 62 D1E1]"
observed_result = "< 8.00"

[[record]]
molecule = "CC(c1nc(C(=O)Nc2cnoc2)c(O)c(=O)n1C)C(c1cocn1)c1ccccc1C#N (single isomer, unassigned) [Example 50 D1E1]"
observed_result = "8.00 to 9.00"

[[record]]
molecule = "CC(c1nc(C(=O)Nc2cnoc2)c(O)c(=O)n1C)C(c1cnn(C)c1)c1ccc(O)cc1C#N (single isomer, unassigned) [Example 80 D2E2]"
observed_result = "8.00 to 9.00"

[[record]]
molecule = "CC(C)c1cnn(C(c2ccccc2Cl)C(C)c2nc(C(=O)Nc3cnoc3)c(O)c(=O)n2C)c1 (single isomer, unassigned) [Example 135 D1E1]"
observed_result = "8.00 to 9.00"

[[record]]
molecule = "Cc1cnn(C(c2ccccc2C#N)C(C)c2nc(C(=O)Nc3cnoc3)c(O)c(=O)n2C)c1 (single isomer, unassigned) [Example 47 D1E1]"
observed_result = "> 9.00"

[[record]]
molecule = "CC(c1nc(C(=O)Nc2cnoc2)c(O)c(=O)n1C)C(c1cnn(CCN2CCN(C(=O)OC(C)(C)C)CC2)c1)c1ccccc1C#N (single isomer, unassigned) [Example 21 D2E2]"
observed_result = "< 8.00"

[[record]]
molecule = "CC(c1nc(C(=O)Nc2cnoc2)c(O)c(=O)n1C)C(c1ccccc1Cl)c1cnn(C)c1C#N (single isomer, unassigned) [Example 96 D1E1]"
observed_result = "> 9.00"

